- target.of.assay: ligand binding domain of human FXR (Homo sapiens)
- Construct: purchased Thermofisher (LanthaScreen) PV4833
- Sequence (Q96RI1 262-486 limits assumed): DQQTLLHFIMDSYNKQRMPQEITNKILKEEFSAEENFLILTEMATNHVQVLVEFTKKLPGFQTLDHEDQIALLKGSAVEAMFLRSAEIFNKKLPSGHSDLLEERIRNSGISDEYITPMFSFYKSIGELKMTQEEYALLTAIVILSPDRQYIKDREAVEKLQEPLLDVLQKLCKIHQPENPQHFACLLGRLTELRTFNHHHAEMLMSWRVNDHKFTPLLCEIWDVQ
- experimental.details: biochemical
- test.settings: −log EC50, concentration required to produce 50% activation; FRET 520 nm/495 nm, 1 hour at room temperature; read-out: Ligand Binding pEC50 (converted)
Record form. Attribute: EC50. Fill in for each entry.
# value in nM; strip the unit string

Q) # return recorded EC50 for input CC1(C)CC(S(=O)(=O)NC(=O)c2ccc(N3C[C@@H]4C[C@H]3C[C@H]4OCc3c(C4CC4)cnn3-c3c(Cl)cccc3Cl)cc2)CCO1 (some centres unmarked)
A) 1.58

Q) # return recorded EC50 for input `O=C(NS(=O)(=O)C1CCOCC1)c1ccc(N2C[C@@H]3C[C@H]2C[C@H]3OCc2c(C3CC3)nnn2-c2c(Cl)cccc2Cl)cc1`
A) 2

Q) # return recorded EC50 for input `O=C(O)c1cc(OC(F)(F)F)c2nc(N3C[C@@H]4C[C@H]3C[C@H]4OCc3c(-c4c(Cl)cccc4Cl)nnn3C3CC3)sc2c1`
A) 12.6

Q) # return recorded EC50 for input `O=C(O)c1cc(O[C@H]2CCOC2)c2nc(N3C[C@@H]4C[C@H]3C[C@H]4OCc3c(C4CC4)nnn3-c3c(Cl)cccc3Cl)sc2c1`
A) 3.98

Q) # return recorded EC50 for input `O=C(O)c1cc(OC2CC2)c2nc(N3C[C@@H]4C[C@H]3C[C@H]4OCc3c(C4CC4)cnn3-c3c(Cl)cccc3Cl)sc2c1`
A) 1.58

Q) # return recorded EC50 for input `Cc1cccc(Cl)c1-n1ncc(C2CC2)c1CO[C@@H]1C[C@@H]2C[C@H]1CN2c1ccc(C(=O)O)c(F)c1`
A) 7.94

Q) # return recorded EC50 for input `Cc1cccc(Cl)c1-n1ncc(C2CC2)c1CO[C@@H]1C[C@@H]2C[C@H]1CN2c1ccc(CCC(=O)O)cc1F`
A) 39.8

Q) # return recorded EC50 for input `O=C(NS(=O)(=O)C1CCOCC1)c1ccc(N2C[C@@H]3C[C@H]2C[C@H]3OCc2c(C3CC3)cnn2-c2c(Cl)cccc2Cl)cc1`
A) 3.16

----------
- target.of.assay: human Farnesoid X receptor ligand-binding domain/Gal4 DNA binding domain chimera (Homo sapiens, UniProt Q96RI1)
- experimental.details: Cell-based assay of FXR activation (FXR-UAS-bla HEK 293T beta-lactamase reporter)
measured.parameter: log10 of EC50 (log10 of the value in nM)
Recorded EC50 (log10, nM)

Q) # return recorded log10 of EC50 for input `O=C(O)c1ccc(N2C[C@@H]3C[C@H]2C[C@H]3OCc2c(C3CC3)cnn2-c2c(Cl)cccc2Cl)cc1F`
A) 0.30

Q) # return recorded log10 of EC50 for input `O=C(O)c1cc(C2CCOCC2)c2nc(N3C[C@@H]4C[C@H]3C[C@H]4OCc3c(-c4c(Cl)cccc4Cl)nnn3C3CC3)sc2c1`
A) 1.00

Q) # return recorded log10 of EC50 for input `O=C(O)c1cc(O[C@@H]2CCOC2)c2nc(N3C[C@@H]4C[C@H]3C[C@H]4OCc3c(C4CC4)nnn3-c3c(Cl)cccc3Cl)sc2c1`
A) 1.40

Q) # return recorded log10 of EC50 for input `O=C(O)c1cc(C2CCC2)c2nc(N3C[C@@H]4C[C@H]3C[C@H]4OCc3c(-c4c(Cl)cccc4Cl)nnn3C3CC3)sc2c1`
A) 0.20

Q) # return recorded log10 of EC50 for input O=C(O)c1cc([C@@H]2CCOC2)c2nc(N3C[C@@H]4C[C@H]3C[C@H]4OCc3c(-c4c(Cl)cccc4Cl)cnn3C3CC3)sc2c1 (single isomer, unassigned)
A) 2.00

Q) # return recorded log10 of EC50 for input O=C(O)c1cc([C@H]2CCOC2)c2nc(N3C[C@@H]4C[C@H]3C[C@H]4OCc3c(C4CC4)nnn3-c3c(Cl)cccc3Cl)sc2c1 (single isomer, unassigned)
A) 0.00
